Catalogue of clearance readings, one per entry.
assay: Pharmacokinetic studies were carried out to determine the clearance after administration at 20 mg/kg intravenously in rat; format: ADME, organism-based; set-up: dose 20 mg/kg, route intravenous; conditions: in vivo, iv
Readout name: clearance (mL/min/kg)

> print(dat)
                                   compound  readout.name  recorded.measurement
1  C[C@@H](O)[C@H]1C(=O)N2C(C(=O)O)=C(SCCNC=N)C[C@H]12 [IMIPENEM ANHYDROUS]     clearance                  61.5
2  C[C@@H](O)[C@H]1C(=O)N2C(C(=O)O)=C(S[C@@H]3CN[C@H](CSc4nnnn4C)C3)[C@H](C)[C@H]12     clearance                  21.8

----------
test system: Salmonella typhimurium; experiment: In vitro antibacterial activity against Salmonella Typhimurium by agar dilution method using Mueller-Hinton; format: functional, Salmonella enterica subsp. enterica serovar Typhimurium; conditions: Salmonella enterica
Catalogue of MIC readings, one per entry.
Readout name: MIC

> print(dat)
                                   compound  readout.name  recorded.measurement
1  C[C@@H](O)[C@H]1C(=O)N2C(C(=O)O)=C(S[C@@H]3CN[C@H](C(=O)N(C)C)C3)[C@H](C)[C@H]12 [MEROPENEM]           MIC           0.049 µg/mL
2  CNC(=O)Cn1nnnc1SC[C@@H]1C[C@H](SC2=C(C(=O)O)N3C(=O)[C@H]([C@@H](C)O)[C@H]3[C@H]2C)CN1           MIC           0.098 µg/mL
3  C[C@@H](O)[C@H]1C(=O)N2C(C(=O)O)=C(S[C@@H]3CN[C@H](CSc4nnnn4CCN(C)C)C3)[C@H](C)[C@H]12           MIC           0.098 µg/mL
4  C[C@@H](O)[C@H]1C(=O)N2C(C(=O)[O-])=C(S[C@@H]3CN[C@H](CSc4nnnn4CC[N+](C)(C)C)C3)[C@H](C)[C@H]12           MIC           0.195 µg/mL
5  C[C@@H](O)[C@H]1C(=O)N2C(C(=O)O)=C(S[C@@H]3CN[C@H](CSc4nnnn4CCO)C3)[C@H](C)[C@H]12           MIC           0.049 µg/mL
6  CNS(=O)(=O)CCn1nnnc1SC[C@@H]1C[C@H](SC2=C(C(=O)O)N3C(=O)[C@H]([C@@H](C)O)[C@H]3[C@H]2C)CN1           MIC           0.049 µg/mL

----------
tested on: Salmonella typhimurium; experiment: In vitro antibacterial activity against Salmonella Typhimurium by agar dilution method using Mueller-Hinton; format: functional, Salmonella enterica subsp. enterica serovar Typhimurium; details: Salmonella enterica
Readout name: MIC (mg/L)

> print(dat)
                                   compound  readout.name  unit.spec  recorded.measurement
1  C[C@@H](O)[C@H]1C(=O)N2C(C(=O)O)=C(S[C@@H]3CN[C@H](CSc4nnnn4C)C3)[C@H](C)[C@H]12           MIC       mg/L                 0.025
2  C[C@@H](O)[C@H]1C(=O)N2C(C(=O)O)=C(S[C@@H]3CN[C@H](CSc4nnnn4-c4ccccc4)C3)[C@H](C)[C@H]12           MIC       mg/L                 0.098
3  C[C@@H](O)[C@H]1C(=O)N2C(C(=O)O)=C(S[C@@H]3CN[C@H](CSc4nnnn4CCS(=O)(=O)N(C)C)C3)[C@H](C)[C@H]12           MIC       mg/L                 0.049
4  C[C@@H](O)[C@H]1C(=O)N2C(C(=O)O)=C(SCCNC=N)C[C@H]12 [IMIPENEM ANHYDROUS]           MIC       mg/L                 0.781
5  C[C@@H](O)[C@H]1C(=O)N2C(C(=O)O)=C(S[C@@H]3CN[C@H](CSc4nnnn4CC(=O)N(C)C)C3)[C@H](C)[C@H]12           MIC       mg/L                 0.049

Where do the numbers come from? From ChEMBL document CHEMBL1133208.
